system: ACHN; assay: NCI tumour cell line growth inhibition, 48 h
Calls of active or inactive are those of the source. No stated cut-off is given here; in the data, active = GI50 up to about 1.1 µM and inactive = higher.
Respond only with the outcome that fits, drawn from active, inactive

Observe how each entry below is paired with its result.
NCCNc1ncnc2ccc(Cl)cc12: inactive
O=C1C=C(NCCc2cc(Br)c(O)c(Br)c2)C(=O)c2[nH]cnc21: inactive
Nc1sc2c(c1C(=O)c1ccc(Cl)c(Cl)c1)CCCC2: inactive
COc1ccc(C2c3cc(OC)c(OC)cc3C(Cc3ccc([N+](=O)[O-])cc3)C2c2ccc([N+](=O)[O-])cc2)cc1OC (stereo unspecified): inactive
CCOC(=O)[C@@H]1C2C(=C[C@H]3[C@H]1C(=O)N1CCCC[C@H]31)CCCN2C(=O)OCc1ccccc1 (stereo partly specified): inactive

Ask | In this assay, the call recorded for `O=C1CC(c2ccc(Cl)cc2)=Nc2ccccc2N1` was what?
Reply | inactive

Ask | GET /call?item= `CC1(C)N=C(N)N=C(N)N1c1ccc(CCCCc2ccc(Cl)cc2Cl)cc1` returns the recorded outcome of this test.
Reply | inactive
